Sourced from patent US8242275B2

# MEASUREMENT TARGET: E. coli topoisomerase IV (Escherichia coli, UniProt P0AFI2+P20083)
# Construct: purchased John Innes Enterprises Ltd. (John Innes Centre, UK)
# Sequence (P0AFI2 whole entry): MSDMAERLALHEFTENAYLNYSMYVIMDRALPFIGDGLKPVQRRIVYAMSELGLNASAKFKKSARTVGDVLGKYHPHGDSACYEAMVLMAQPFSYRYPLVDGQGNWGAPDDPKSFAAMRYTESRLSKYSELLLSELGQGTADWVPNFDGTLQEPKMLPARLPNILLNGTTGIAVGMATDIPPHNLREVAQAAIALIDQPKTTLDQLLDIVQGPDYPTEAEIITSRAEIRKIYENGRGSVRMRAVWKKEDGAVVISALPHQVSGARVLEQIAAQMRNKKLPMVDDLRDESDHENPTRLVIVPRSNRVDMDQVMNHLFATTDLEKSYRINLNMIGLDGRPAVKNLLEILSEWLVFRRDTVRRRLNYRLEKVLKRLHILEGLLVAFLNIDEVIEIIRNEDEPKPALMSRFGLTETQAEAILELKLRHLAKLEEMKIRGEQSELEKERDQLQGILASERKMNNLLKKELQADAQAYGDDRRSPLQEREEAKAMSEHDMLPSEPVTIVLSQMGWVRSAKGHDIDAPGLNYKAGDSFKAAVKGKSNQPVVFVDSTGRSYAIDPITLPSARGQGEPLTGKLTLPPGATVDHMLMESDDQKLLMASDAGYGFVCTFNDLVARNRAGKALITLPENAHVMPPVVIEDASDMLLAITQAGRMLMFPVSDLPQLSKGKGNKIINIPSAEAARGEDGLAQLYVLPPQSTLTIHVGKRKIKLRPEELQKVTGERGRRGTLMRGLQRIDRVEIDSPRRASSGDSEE
# Sequence (P20083 whole entry): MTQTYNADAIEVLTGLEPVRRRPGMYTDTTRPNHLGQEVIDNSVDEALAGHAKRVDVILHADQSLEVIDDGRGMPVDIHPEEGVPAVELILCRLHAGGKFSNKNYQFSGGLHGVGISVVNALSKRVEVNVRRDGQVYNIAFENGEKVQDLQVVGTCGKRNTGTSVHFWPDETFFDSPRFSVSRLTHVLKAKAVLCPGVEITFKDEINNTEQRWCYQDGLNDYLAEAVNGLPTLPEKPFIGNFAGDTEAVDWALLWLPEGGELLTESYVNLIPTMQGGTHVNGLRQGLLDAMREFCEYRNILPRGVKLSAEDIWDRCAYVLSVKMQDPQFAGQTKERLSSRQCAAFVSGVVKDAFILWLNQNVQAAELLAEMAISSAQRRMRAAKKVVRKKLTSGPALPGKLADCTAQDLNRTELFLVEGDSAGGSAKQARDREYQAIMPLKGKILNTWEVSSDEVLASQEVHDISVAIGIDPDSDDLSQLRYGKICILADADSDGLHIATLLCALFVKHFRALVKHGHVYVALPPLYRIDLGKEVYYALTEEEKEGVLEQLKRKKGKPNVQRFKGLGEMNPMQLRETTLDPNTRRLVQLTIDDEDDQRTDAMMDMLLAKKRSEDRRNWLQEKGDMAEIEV
# PROTOCOL: Topoisomerase IV inhibition assay (relaxation)
# Assay type: biochemical
# EXPERIMENTAL PARAMETERS: E. coli topoisomerase IV relaxation, visual inspection of gels; read-out: Topoisomerase IV IC50 (converted)
MEASURED ATTRIBUTE: IC50 (nM)
One number for each entry, in nM.

Here is how some compounds turned out for IC50.
# COMPOUND, IC50 [nM]
records = [
    ("COc1ccc2nccc(-n3cc4c(n3)CCC(NCc3ccc5c(c3)NCCS5)C4)c2n1 (stereo not shown)", 65.4),
    ("COc1ccc2nccc(-n3cc4c(n3)CCC(NC(=O)c3cc5c(cc3Br)SCC(=O)N5)C4)c2c1 (stereo not shown)", 221),
    ("COc1ccc2nccc(-n3cc4c(n3)CCC(NCc3ccc5c(n3)NC(=O)CO5)C4)c2n1 (stereo not shown)", 35),
    ("COc1ccc2nccc(-n3cc4c(n3)CCC(NCc3ccc5c(c3)NC(=O)CS5)C4)c2c1 (stereo not shown)", 63.6),
    ("COc1ccc2nccc(-n3cc4c(n3)CCC(NCC(=O)Nc3cc(F)cc(F)c3)C4)c2n1 (stereo not shown)", 34.4),
]

Could you report IC50 for every entry in the following list?
1. COc1ccc2nccc(-n3cc4c(n3)CCC(NC(=O)c3cc5c(cc3C(F)(F)F)SCC(=O)N5)C4)c2c1 (stereo not shown)
2. COc1ccc2nccc(-n3cc4c(n3)CCC(NC(=O)c3cc5c(cc3F)SCC(=O)N5)C4)c2c1 (stereo not shown)
3. COc1ccc2nccc(-n3cc4c(n3)CCC(NCC(=O)Nc3ccc5c(c3)NC(=O)CS5)C4)c2n1 (stereo not shown)
4. COc1ccc2nccc(-n3cc4c(n3)CCC(NC(=O)c3cc5c(cc3Br)SCC(=O)N5)C4)c2n1 (stereo not shown)
5. COc1ccc2nccc(-n3cc4c(n3)CCC(NC/C=C/c3ccccc3[N+](=O)[O-])C4)c2n1 (stereo not shown)
6. COc1ccc2nccc(-n3cc4c(n3)CCC(NC(=O)c3cc5c(cc3F)SCC(=O)N5)C4)c2n1 (stereo not shown)

452
496
485
442
32.9
248

Value sought for every listed compound: IC50.
1. COc1ccc2nccc(-n3cc4c(n3)CCC(NC(=O)c3ccc5c(c3)NC(=O)CO5)C4)c2n1 (stereo not shown)
2. COc1ccc2nccc(-n3cc4c(n3)CCC(NCc3ccc5c(c3)OCO5)C4)c2n1 (stereo not shown)
3. COc1ccc2nccc(-n3cc4c(n3)CCC(NCc3ccc5c(c3)OCCO5)C4)c2n1 (stereo not shown)

1: 531; 2: 582; 3: 564

====

Exercise: for every item that follows, state its recorded MIC.
# Test system: S. aureus ATCC13709
# PROTOCOL: In vitro antibacterial activity (MIC assay), broth microdilution
# Format: cell-based
# EXPERIMENTAL PARAMETERS: Staphylococcus aureus, ATCC13709; read-out: S. aureus ATCC13709 MIC
One number for each entry, in µg/mL.

# COMPOUND, UNIT STRING, MIC
data = [
    ("COc1ccc2nccc(-n3cc4c(n3)CCC(NC(=O)c3cc5cc(Br)ccc5[nH]3)C4)c2c1 (stereo not drawn) [Example 76]", "µg/mL", 2),
]

Go through the list and state MIC for each entry.
1. COc1ccc2nccc(-n3cc4c(n3)CCC(N(CC(=O)O)Cc3ccc5c(c3)NC(=O)CS5)C4)c2n1 (stereo not drawn) [Example 68]
2. COc1ccc2nccc(-n3cc4c(n3)CCC(NC(=O)c3cc(F)c5c(c3)OCCO5)C4)c2n1 (stereo not drawn) [Example 127]
3. COc1ccc2nccc(-n3cc4c(n3)CCC(NCC(=O)Nc3cccc(Cl)c3)C4)c2n1 (stereo not drawn) [Example 123]
4. COc1ccc2nccc(-n3cc4c(n3)CCC(NCc3cc(OC)c(OC)cc3F)C4)c2n1 (stereo not drawn) [Example 88]
5. COc1ccc2nccc(-n3cc4c(n3)CCC(NCc3cc5c(cc3F)SCCN5)C4)c2n1 (stereo not drawn) [Example 107]

8
0.5
1
4
0.25

// each listed compound needs a value for MIC
1. COc1ccc2nccc(-n3cc4c(n3)CCC(NCC(=O)NCc3ccccc3)C4)c2n1 (stereo not drawn) [Example 84]
2. O=C1CSc2ccc(C(=O)NC3CCc4c(cnn4-c4cc(C(F)(F)F)nc5c(C(F)(F)F)cccc45)C3)cc2N1 (stereo not drawn) [Example 96]
3. COc1ccc2nccc(-n3cc4c(n3)CCC(NC(=O)c3cc5c(cc3C)SCC(=O)N5)C4)c2n1 (stereo not drawn) [Example 133]
4. CCN(CC)c1ccc(CNC2CCc3nn(-c4ccnc5ccc(OC)nc45)cc3C2)cc1 (stereo not drawn) [Example 85]
5. COc1ccc2nccc(-n3cc4c(n3)CCC(NC(=O)c3ccc(Br)s3)C4)c2c1 (stereo not drawn) [Example 72]
6. COc1ccc2nccc(-n3cc4c(n3)CCC(NCCOc3cc(F)cc(F)c3)C4)c2c1 (stereo not drawn) [Example 121]

1. 2
2. 8
3. 0.25
4. 8
5. 2
6. 1

# map each compound to its MIC
1. COc1ccc2nccc(-n3cc4c(n3)CCC(NC(=O)c3ccc5c(c3)NC(=O)CO5)C4)c2c1 (stereo not drawn) [Example 116]
2. COc1ccc2nccc(-n3cc4c(n3)CCC(NC(=O)/C=C/c3ccc(Cl)c(Cl)c3)C4)c2n1 (stereo not drawn) [Example 92]
3. COc1ccc2nccc(-n3cc4c(n3)CCC(NCc3ccc5c(c3)NCCS5)C4)c2c1 (stereo not drawn) [Example 102]

1. 0.125
2. 0.5
3. 0.5

====

# MEASUREMENT TARGET: E. coli DNA gyrase (Escherichia coli, UniProt P0AES4+P0AES6)
# Construct: purchased John Innes Enterprises Ltd. (John Innes Centre, UK)
# PROTOCOL: DNA gyrase inhibition assay (supercoiling)
# Assay type: biochemical
# EXPERIMENTAL PARAMETERS: E. coli DNA gyrase supercoiling, visual inspection of gels; read-out: DNA Gyrase IC50 (converted)
Exercise: state measured IC50 for each of the compounds provided.
Give bare numbers, in nM.

Past entries and their recorded results:
# COMPOUND, MEASUREMENT TARGET, MEASURED ATTRIBUTE, ASSAY RESULT
records = [
    ("COc1ccc2nccc(-n3cc4c(n3)CCC(NC(=O)c3ccc5c(c3)NC(=O)CO5)C4)c2c1 (stereo not shown)", "E. coli DNA gyrase (Escherichia coli, UniProt P0AES4+P0AES6)", "IC50", 532),
    ("COc1ccc2nccc(-n3cc4c(n3)CCC(NC(=O)c3c(F)cc5c(c3F)NC(=O)CS5)C4)c2n1 (stereo not shown)", "E. coli DNA gyrase (Escherichia coli, UniProt P0AES4+P0AES6)", "IC50", 1910),
]

Now look at this entry.
For COc1ccc2nccc(-n3cc4c(n3)CCC(NCc3ccc5c(c3)OCCO5)C4)c2c1 (stereo not shown) , write its IC50.
4520

====

# MEASUREMENT TARGET: E. coli DNA gyrase (Escherichia coli, UniProt P0AES4+P0AES6)
# Construct: purchased John Innes Enterprises Ltd. (John Innes Centre, UK)
# PROTOCOL: DNA gyrase inhibition assay (supercoiling)
# Type: biochemical
# EXPERIMENTAL PARAMETERS: E. coli DNA gyrase supercoiling, visual inspection of gels; read-out: DNA Gyrase IC50 (converted)
# Method: Inhibition of the supercoiling activity of E. coli DNA gyrase was determined using enzymes, buffers and substrates received from John Innes Enterprises Ltd. (John Innes Centre, UK). The reactions were performed according to the manufacturer's directions, with the following modifications. […]
MEASURED ATTRIBUTE: IC50

Some entries whose results are on file:
# COMPOUND, ASSAY RESULT
measured = [
    ("COc1ccc2nccc(-n3cc4c(n3)CCC(NC(=O)c3cc5c(F)cc(F)cc5[nH]3)C4)c2n1 (stereo not drawn) [Example 7]", "4.22 µM"),
    ("COc1ccc2nccc(-n3cc4c(n3)CCC(NC(=O)c3cc5c(F)cc(F)cc5[nH]3)C4)c2c1 (stereo not drawn) [Example 22]", "1.06 µM"),
]

Can you give me IC50 for all of these, one by one?
1. O=C1CSc2ccc(C(=O)NC3CCc4c(cnn4-c4cc(C(F)(F)F)nc5c(C(F)(F)F)cccc45)C3)cc2N1 (stereo not drawn) [Example 96]
2. COc1ccc2nccc(-n3cc4c(n3)CCC(NC(=O)c3ccc([N+](=O)[O-])cc3F)C4)c2c1 (stereo not drawn) [Example 118]
3. COc1ccc2nccc(-n3cc4c(n3)CCC(NCc3ccc5c(n3)NC(=O)CO5)C4)c2n1 (stereo not drawn) [Example 44]
4. COc1ccc2nccc(-n3cc4c(n3)CCC(NCC(=O)Nc3ccc5c(c3)NC(=O)CS5)C4)c2n1 (stereo not drawn) [Example 83]

["> 6.76 µM", "> 34.7 µM", "< 0.273 µM", "< 0.485 µM"]
